All values here come from ChEMBL document CHEMBL1201861.

# Tested on: LCLC-103H cell line
# protocol.summary: cells
# Assay type: functional, cell-based, Homo sapiens
# experimental.parameters: Homo sapiens, LCLC-103H
# Description: SANGER: Inhibition of human LCLC-103H cell growth in a cell viability assay.
Where a name gives a salt, the structure may show the parent alone.

molecule: Nc1cccc2c1CN(C1CCC(=O)NC1=O)C2=O (centres undefined) [LENALIDOMIDE]
tested.system: LCLC-103H cell line
units.text: nM
bound.sign: >
IC50: 5000
--
molecule: Cn1cnc2c(F)c(Nc3ccc(Br)cc3Cl)c(C(=O)NOCCO)cc21
tested.system: LCLC-103H cell line
units.text: nM
bound.sign: >
IC50: 4000
--
molecule: C=C(c1ccc(C(=O)O)cc1)c1cc2c(cc1C)C(C)(C)CCC2(C)C
tested.system: LCLC-103H cell line
units.text: nM
bound.sign: >
IC50: 8000
--
molecule: CS(=O)(=O)c1ccc(C(=O)Nc2ccc(Cl)c(-c3ccccn3)c2)c(Cl)c1
tested.system: LCLC-103H cell line
units.text: nM
bound.sign: >
IC50: 10000
--
molecule: Oc1ccc2ccccc2c1SSc1c(O)ccc2ccccc12
tested.system: LCLC-103H cell line
units.text: nM
bound.sign: =
IC50: 18500
--
molecule: COC1=CC(c2cc3ccccc3[nH]2)=N/C1=C\c1[nH]c(C)cc1C [OBATOCLAX MESYLATE]
tested.system: LCLC-103H cell line
units.text: nM
bound.sign: =
IC50: 185
--
molecule: CC(C)c1ccccc1Cc1cc(C(=O)Nc2ccc(S(=O)(=O)c3ccccc3C(C)(C)C)cc2)c(O)c(O)c1O
tested.system: LCLC-103H cell line
units.text: nM
bound.sign: =
IC50: 210
--
molecule: N#Cc1c(O)c2c(-c3ccc(-c4ccccc4O)cc3)csc2[nH]c1=O
tested.system: LCLC-103H cell line
units.text: nM
bound.sign: >
IC50: 1020
--
molecule: Nc1ccn([C@@H]2O[C@H](CO)[C@@H](O)C2(F)F)c(=O)n1
tested.system: LCLC-103H cell line
units.text: nM
bound.sign: =
IC50: 33.3
